Values were extracted from patent US20120114652A1.

# ASSAYED_SYSTEM: T1, mouse PAI-1 (mouse, UniProt P22777 24-401)
# T1 sequence: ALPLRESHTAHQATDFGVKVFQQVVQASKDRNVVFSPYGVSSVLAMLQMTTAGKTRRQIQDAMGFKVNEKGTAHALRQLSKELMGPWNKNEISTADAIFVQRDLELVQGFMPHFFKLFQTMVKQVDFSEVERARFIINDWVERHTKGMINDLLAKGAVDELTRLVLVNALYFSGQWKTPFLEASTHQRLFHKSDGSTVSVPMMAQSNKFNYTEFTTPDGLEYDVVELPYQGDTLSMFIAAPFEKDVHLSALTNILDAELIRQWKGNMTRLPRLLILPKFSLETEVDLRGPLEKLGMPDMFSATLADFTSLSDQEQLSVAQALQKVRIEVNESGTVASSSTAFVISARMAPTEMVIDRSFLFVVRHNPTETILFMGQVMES
# METHOD_SUMMARY: cell-based or functional assay
IC50 chromogenic by entry:
Answer format: numeric, nM implied, no suffix.

Before answering, review these 2 worked examples.
[
  {
    "BINDER": "Antibody 20, IgG1, not germlined (antibody, V domains shown, whole IgG1; also called Ab 20) VH: QVQLQQSGAEVKKPGSSVKVSCKASGGTFSSYAISWVRQAPGQGLEWMGGIIPTFGTANYAQKFQGRVTITADESTSTAYMELSSLRSEDTAVYYCAREKRQWLEGHFDYWGRGTLVTVSS VL: DIQMTQSPSTLSASVGDRVTITCRASEGIYHELAWYQQKPGKAPKLLIYRASSLASGVPSRFSGSRSGTEFTLTISSLQPDDFATYYCQQYSDYPLTFGGGTKVEIK",
    "IC50 chromogenic, nM": 1.4
  },
  {
    "BINDER": "Antibody 02, IgG1, not germlined (antibody, V domains shown) VH: QVQLVQSGAEVKKPGSSVKVSCKASGGTFSSYAISWVRQAPGQGLEWMGGIIPTFGTANYAQKFQGRVTITADESTSTAYMELSSLRSEDTAVYYCAREKRQWLEGHFDYWGRGTLVTVSS VL: DIQMTQSPSTLSASVGDRVTITCRASEGIYHSLAWYQQKPGKAPKLLIYKASSLASGVPSRFSGSGSGTEFTLTISSLQPDDFATYYCQQYSDYPLTFGGGTKVEIK",
    "IC50 chromogenic, nM": 167
  }
]

query: Request the reported IC50 chromogenic associated with Antibody 12, scFv (scFv, V domains shown) VH: QVQLQQSGAEVKKPGSSVKVSCKASGGTFSSYAISWVRQAPGQGLEWMGGIIPTFPTANYAQKFQGRVTITADESTSTAYMELSGLRSEDTAVYYCAREKRQWLEGHFDYWGRGTPVTVSS VL: DIQMTQSPSFLSASIGDRVTITCRASEGIYHNLAWYQQKPGKAPKLLIYRASSLASGAPSRFSGSGSGTDFTLTISSLQPDDFATYYCQQYSNYPLTFGGGTKLEIK
result: 27.8
